target.under.test: CDK6 (Homo sapiens)
Construct: Percentage values are normalized to DMSO-treated MM.1S cells and the respective loading controls; endogenous in cells; host or cells: MM.1S (human multiple myeloma)
Sequence (Q00534 whole entry): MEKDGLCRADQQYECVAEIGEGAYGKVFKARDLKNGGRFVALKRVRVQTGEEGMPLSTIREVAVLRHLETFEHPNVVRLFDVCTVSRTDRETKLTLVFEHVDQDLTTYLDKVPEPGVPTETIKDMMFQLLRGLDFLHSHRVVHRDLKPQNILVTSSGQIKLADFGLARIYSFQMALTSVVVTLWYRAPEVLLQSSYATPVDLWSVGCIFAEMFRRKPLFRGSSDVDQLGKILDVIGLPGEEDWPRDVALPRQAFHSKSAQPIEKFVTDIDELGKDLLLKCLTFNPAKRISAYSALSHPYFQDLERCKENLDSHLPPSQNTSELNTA
assay: CDK6 degradation, western blot of MM.1S cells
Assay type: cell-based
condition.description: MM1.S; 0.1 μM, 16 h, MM.1S cells, normalized to DMSO (100%); read-out: D CDK6: remaining CDK6 levels
measured.metric: remaining activity at 0.1 µM
Number plus unit, in that order.

Known remaining activity at 0.1 µM results, listed for orientation:
molecule	remaining activity at 0.1 µM
CC(=O)c1c(C)c2cnc(Nc3ccc(N4CCN(CCOCCOCCOCC(=O)N[C@H](C(=O)N5C[C@H](O)C[C@H]5C(=O)NCc5ccc(-c6scnc6C)cc5)C(C)(C)C)CC4)cn3)nc2n(C2CCCC2)c1=O	14%
CC(=O)c1c(C)c2cnc(Nc3ccc(N4CCN(C(=O)CCCCCOCCCCOCCCCOCCCCOCCCCCCNc5cccc6c5C(=O)N(C5CCC(=O)NC5=O)C6=O)CC4)cn3)nc2n(C2CCCC2)c1=O (stereo not drawn)	51%

// next entry
For this molecule ( CC(=O)c1c(C)c2cnc(Nc3ccc(N4CCN(CCCCCCCCOc5cc(-c6scnc6C)ccc5CNC(=O)[C@@H]5C[C@@H](O)CN5C(=O)[C@H](C(C)C)N5Cc6ccccc6C5=O)CC4)cn3)nc2n(C2CCCC2)c1=O ), measured remaining activity at 0.1 µM is 62%
